Examples of compounds with documented AC50 follow.
- TARGET_OR_TEST_SYSTEM: Peroxisome proliferator-activated receptor gamma (Homo sapiens); further: assay procedure not described here
- Sequence (P37231 whole entry): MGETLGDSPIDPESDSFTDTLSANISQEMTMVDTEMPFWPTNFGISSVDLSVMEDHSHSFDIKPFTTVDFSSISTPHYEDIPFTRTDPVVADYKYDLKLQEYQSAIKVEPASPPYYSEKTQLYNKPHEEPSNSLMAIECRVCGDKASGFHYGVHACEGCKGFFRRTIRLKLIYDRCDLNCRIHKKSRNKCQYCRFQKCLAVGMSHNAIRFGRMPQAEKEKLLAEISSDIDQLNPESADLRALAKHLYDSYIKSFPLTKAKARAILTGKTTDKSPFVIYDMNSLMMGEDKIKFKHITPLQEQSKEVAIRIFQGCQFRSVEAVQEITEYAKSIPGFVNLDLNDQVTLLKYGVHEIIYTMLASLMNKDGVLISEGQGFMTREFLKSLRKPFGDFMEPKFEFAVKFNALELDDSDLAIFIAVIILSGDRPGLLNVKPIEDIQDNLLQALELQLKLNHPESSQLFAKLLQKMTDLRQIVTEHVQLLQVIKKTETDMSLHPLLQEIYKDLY
- Format: functional

COMPOUND	READOUT_NAME	OBSERVED_VALUE
CC(C)c1cccc(C(C)C)c1O	AC50	> 30 µM
CCOc1nc2cccc(C(=O)O)c2n1Cc1ccc(-c2ccccc2-c2nnn[nH]2)cc1	AC50	18 µM
CN(C)C/C=C/C(=O)Nc1cc2c(Nc3ccc(F)c(Cl)c3)ncnc2cc1O[C@H]1CCOC1	AC50	> 30 µM
CCOC(=O)C(C)(C)Oc1ccc(Cl)cc1 [CLOFIBRATE]	AC50	> 30 µM
Clc1ccc(Cn2c(CN3CCCC3)nc3ccccc32)cc1	AC50	> 30 µM
CCC(=O)O[C@]1(C(=O)CCl)[C@@H](C)C[C@H]2[C@@H]3CCC4=CC(=O)C=C[C@]4(C)[C@@]3(F)[C@@H](O)C[C@@]21C [CLOBETASOL PROPIONATE]	AC50	18 µM

Exercise: Fill in: AC50 of OC[C@H]1O[C@@H](n2cnc3c2NC=NC[C@H]3O)C[C@@H]1O is ___
Solution: > 30 µM

Exercise: What would you report for CCOC(=O)[C@@H](N)Cc1ccc(-c2cc(O[C@H](c3ccc(Cl)cc3-n3ccc(C)n3)C(F)(F)F)nc(N)n2)cc1 ?
Solution: > 30 µM

Exercise: What would you report for CCCc1nc2c(C)cc(-c3nc4ccccc4n3C)cc2n1Cc1ccc(-c2ccccc2C(=O)O)cc1 ?
Solution: 19 µM

Exercise: What would you report for CO/N=C(\C(=O)N[C@@H]1C(=O)N2C(C(=O)O)=CCS[C@H]12)c1csc(N)n1 ?
Solution: > 30 µM

Exercise: What would you report for Cc1onc(-c2c(F)cccc2Cl)c1C(=O)N[C@@H]1C(=O)N2[C@@H]1SC(C)(C)[C@@H]2C(=O)O ?
Solution: > 30 µM

Exercise: What would you report for CNC[C@H](O)c1ccc(O)c(O)c1 [EPINEPHRINE] ?
Solution: > 30 µM

Exercise: What would you report for COc1cc(C(C)=O)ccc1OCCCN1CCC(c2noc3cc(F)ccc23)CC1 ?
Solution: > 30 µM

Exercise: What would you report for CO/N=C(\C(=O)N[C@@H]1C(=O)N2C(C(=O)O)=C(CSc3nc(=O)c(=O)[nH]n3C)CS[C@H]12)c1csc(N)n1 ?
Solution: 1.4 µM

Exercise: What would you report for S=P(N1CC1)(N1CC1)N1CC1 ?
Solution: > 30 µM

Exercise: What would you report for Cc1nnc(SCC2=C(C(=O)O)N3C(=O)[C@@H](NC(=O)Cn4cnnn4)[C@H]3SC2)s1 ?
Solution: > 300 µM

Exercise: What would you report for CCOc1cc([C@@H](CS(C)(=O)=O)N2C(=O)c3cccc(NC(C)=O)c3C2=O)ccc1OC ?
Solution: > 30 µM

Exercise: What would you report for CC(C)(Oc1ccc(CCNC(=O)c2ccc(Cl)cc2)cc1)C(=O)O [BEZAFIBRATE] ?
Solution: > 30 µM

Exercise: What would you report for CC1(C)S[C@@H]2[C@H](NC(=O)C(C(=O)O)c3ccccc3)C(=O)N2[C@H]1C(=O)O (some centres undefined) ?
Solution: > 30 µM
